All figures here come from patent US20200347127A1.

Biological target: recombinant human IL-17A (human, UniProt Q16552 24-155)
Sequence (Q16552 24-155): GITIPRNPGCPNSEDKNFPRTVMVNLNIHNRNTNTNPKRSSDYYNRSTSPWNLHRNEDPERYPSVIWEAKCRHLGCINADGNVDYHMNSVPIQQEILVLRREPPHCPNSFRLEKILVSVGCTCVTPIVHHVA
Assay: cell-based or functional assay
# Cell assay IC50 (nM), IL-17A-induced IL6 release from HT1080 per entry
assayReadout: Cell assay IC50 (nM), IL-17A-induced IL6 release from HT1080

binder	unitAbbreviation	recordedResult
Clone 3.6 (VHH, Human single VH domain) VHH: QVQLVQSGAEVKKPGASVKVSCAASGYTFTDYYLHWVRQAPGQGLEWMGWINPNTGTTKYAREFEGRVTMTRDTSISTAYMELSRLRSDDTAVYYCASLDRDWRSPNDYYGWFDSWGQGTLVTVSS	nM	28
Clone 3.13 (VHH, Human single VH domain) VHH: QVQLVQSGAEVKKPGASVKVSCKASGYNFDAYHINWVRQAPGQGLEWMGSIKPNSGATKYAQKFQGRVTITRDTSISTAYMELSRLRSDDTAVYYCASLDRDTWYPHSYAGWFDSWGQGTLVTVSS	nM	5
VH 3.2.1 (clone 3.2 expressed from phagemid vector: with linker residues and His tag) (VHH, Human single VH domain) VHH: QVQLVQSGAEVKKPGASVKVSCKASGYNADAYYINWVRQAPGQGLEWMGSIKPNTGATKYAQKFQGRVTITRDTSISTAYMELSRLRSDDTAVYYCASLDRDTWYPHSYAGWFDAWGQGTLVTVSS	nM	2.5
